Values from patent US8686150B2

Experimental System: human full-length recombinant PKC βII (Homo sapiens)
Construct: Active human full-length recombinant PKC βII; purchased Invitrogen GmbH, Darmstadt, Germany
Experiment Notes: Determination of PKC βII inhibition (Caliper mobility-shift kinase assay, Fluorescein-RFARKGSLRQKNV peptide substrate)
Type: biochemical
Test Parameters: example compounds at a final concentration of 1.14 μM (±0.15 μM)
Property: inhibition at 1.14 µM (%)

| Molecule | inhibition at 1.14 µM (%) |
| --- | --- |
| Cc1n[nH]c2nc(-c3ccc(O)c(F)c3)cc(C(=O)N3CCCC4(CNCCO4)C3)c12 (stereo not shown) | 58 |
| Cc1n[nH]c2nc(-c3ccc(O)c(F)c3)cc(C(=O)N3CCN[C@@H](C)C3)c12 | 96 |

P = Cc1n[nH]c2nc(-c3ccc(O)cc3)cc(C(=O)NC3CCN(Cc4ccccc4)C3)c12 (stereo not shown)
Q = Cc1n[nH]c2nc(-c3ccc(O)cc3)cc(C(=O)N3CCN(C4CCC4)CC3)c12
Decide: P or Q , by lowest recorded inhibition at 1.14 µM. Label of pick, please.
Q
(Q: 45%, P: 67%)

* * *

Experimental System: human full-length recombinant PKC βII (Homo sapiens, UniProt P05771)
Construct: Active human full-length recombinant PKC βII; purchased Invitrogen GmbH, Darmstadt, Germany
Sequence (P05771 1-673 isoform P05771-2): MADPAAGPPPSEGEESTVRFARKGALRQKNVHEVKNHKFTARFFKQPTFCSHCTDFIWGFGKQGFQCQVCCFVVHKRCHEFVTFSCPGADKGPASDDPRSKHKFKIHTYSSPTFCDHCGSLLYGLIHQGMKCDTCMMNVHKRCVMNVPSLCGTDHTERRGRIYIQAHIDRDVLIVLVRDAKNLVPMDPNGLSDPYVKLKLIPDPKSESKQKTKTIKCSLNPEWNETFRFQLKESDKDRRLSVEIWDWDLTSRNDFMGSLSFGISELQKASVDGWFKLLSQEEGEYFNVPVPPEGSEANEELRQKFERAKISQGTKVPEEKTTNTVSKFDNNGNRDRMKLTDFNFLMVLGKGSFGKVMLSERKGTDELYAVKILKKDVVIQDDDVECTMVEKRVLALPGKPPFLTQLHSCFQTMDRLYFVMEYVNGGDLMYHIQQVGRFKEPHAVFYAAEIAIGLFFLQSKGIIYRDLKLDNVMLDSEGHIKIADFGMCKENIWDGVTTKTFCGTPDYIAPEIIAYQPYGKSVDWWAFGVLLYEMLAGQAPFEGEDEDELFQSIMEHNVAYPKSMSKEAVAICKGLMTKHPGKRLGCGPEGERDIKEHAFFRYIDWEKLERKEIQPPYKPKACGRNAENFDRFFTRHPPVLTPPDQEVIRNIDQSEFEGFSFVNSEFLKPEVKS
Experiment Notes: Determination of PKC βII inhibition (Caliper mobility-shift kinase assay, Fluorescein-RFARKGSLRQKNV peptide substrate)
Type: biochemical
Test Parameters: example compounds at a final concentration of 1.14 μM (±0.15 μM)
Property: inhibition at 1.14 µM (%)

Worked examples follow.
| Compound | Experimental System | Unit Info | inhibition at 1.14 µM |
| --- | --- | --- | --- |
| COC(=O)[C@H]1CN(C(=O)c2cc(-c3ccc(O)c(F)c3)nc3[nH]nc(C)c23)CCN1 [Example 297] | human full-length recombinant PKC βII (Homo sapiens, UniProt P05771) | % | 34 |
| Cc1n[nH]c2nc(-c3ccc(O)cc3)cc(C(=O)N3C[C@H]4CNC[C@H]4C3)c12 [Example 250] | human full-length recombinant PKC βII (Homo sapiens, UniProt P05771) | % | 85 |
| Cc1n[nH]c2nc(-c3ccc(O)cc3)cc(C(=O)NCCN3CCC(c4ccccc4)C3)c12 (centres unmarked) [Example 388] | human full-length recombinant PKC βII (Homo sapiens, UniProt P05771) | % | 54 |

P = Cc1n[nH]c2nc(-c3ccc(O)c(F)c3)cc(C(=O)N3CCNC[C@H]3Cc3ccccc3)c12 [Example 321]
Q = Cc1n[nH]c2nc(-c3ccc(O)cc3)cc(C(=O)NC3CCN(Cc4ccccc4)CC3)c12 [Example 392]
Return label of the item with the larger inhibition at 1.14 µM. Candidates: P , Q . Answer by stating the label of the chosen item.
P

I = CCC1(NC(=O)c2cc(-c3ccc(O)cc3F)nc3[nH]nc(C)c23)CCCNC1 (centres unmarked) [Example 62]
II = Cc1cc(O)cc(C)c1-c1cc(C(=O)N2CCNCC2(C)C)c2c(C)n[nH]c2n1 [Example 156]
III = Cc1n[nH]c2nc(-c3ccc(O)cc3)cc(C(=O)N3CCN(C(C)C)CC3)c12 [Example 36]
IV = Cc1n[nH]c2nc(-c3ccc(O)cc3)cc(C(=O)N3CCC(CN)(c4ccccc4)CC3)c12 [Example 34]
Put the items in order so that reported inhibition at 1.14 µM rises from first to last. Enter labels, ranked according to the request.
II, III, IV, I

* * *

Experimental System: human full-length recombinant PKC βII (Homo sapiens, UniProt P05771)
Construct: Active human full-length recombinant PKC βII; purchased Invitrogen GmbH, Darmstadt, Germany
Experiment Notes: Determination of PKC βII inhibition (Caliper mobility-shift kinase assay, Fluorescein-RFARKGSLRQKNV peptide substrate)
Type: biochemical
Test Parameters: example compounds at a final concentration of 1.14 μM (±0.15 μM)
Property: inhibition at 1.14 µM (%)

| Compound | Unit Info | inhibition at 1.14 µM |
| --- | --- | --- |
| Cc1n[nH]c2nc(-c3ccc(O)cc3)cc(C(=O)N3CCN(C(=O)N4CCCC4)CC3)c12 | % | 86 |
| Cc1n[nH]c2nc(-c3ccc(O)cc3)cc(C(=O)N3CCNC[C@@H]3c3ccccc3)c12 | % | 95 |
| COc1cc(O)ccc1-c1cc(C(=O)N2CCNCC2)c2c(C)n[nH]c2n1 | % | 94 |
| Cc1n[nH]c2nc(-c3ccc(O)cc3)cc(C(=O)NC(CN(C)C)c3ccccc3)c12 (stereo not shown) | % | 72 |
| Cc1n[nH]c2nc(-c3ccc(O)cc3)cc(C(=O)N3CCNC(C(F)(F)F)C3)c12 (stereo not shown) | % | 75 |
| Cc1n[nH]c2nc(-c3ccc(O)cc3F)cc(C(=O)N3CC4(CCCC4)NCC3(C)C)c12 | % | 104 |
| Cc1n[nH]c2nc(-c3ccc(O)cc3)cc(C(=O)N3C[C@H](C)NC[C@H]3c3ccccc3)c12 | % | 95 |

* * *

Experimental System: human full-length recombinant PKC βII (Homo sapiens)
Construct: Active human full-length recombinant PKC βII; purchased Invitrogen GmbH, Darmstadt, Germany
Experiment Notes: Determination of PKC βII inhibition (Caliper mobility-shift kinase assay, Fluorescein-RFARKGSLRQKNV peptide substrate)
Type: biochemical
Test Parameters: example compounds at a final concentration of 1.14 μM (±0.15 μM)
Property: inhibition at 1.14 µM (%)

| Molecule | Experimental System | Observed Result |
| --- | --- | --- |
| Cc1n[nH]c2nc(-c3ccc(O)cc3F)cc(C(=O)N3CCC(N)(c4ccccc4)CC3)c12 | human full-length recombinant PKC βII (Homo sapiens) | 90 |

1 = Cc1n[nH]c2nc(-c3ccc(O)cc3F)cc(C(=O)N3CCC[C@@H](CN)C3)c12
2 = CCc1n[nH]c2nc(-c3ccc(O)cc3)cc(C(=O)NC3CCCN(CC)C3)c12 (stereo not drawn)
// compare: 1 vs 2 , metric inhibition at 1.14 µM, want the smaller // return label of chosen record
2
(2: 46%, 1: 80%)

A = Cc1n[nH]c2nc(-c3ccc(O)cc3)cc(C(=O)N3CC(C(C)(C)N)C3)c12
B = Cc1n[nH]c2nc(-c3ccc(O)c(F)c3)cc(C(=O)N3CC[C@H](N(C)C)C3)c12
Would you kindly point out which of A and B has the smaller inhibition at 1.14 µM figure? State the label of the item chosen.
B
(B: 44%, A: 91%)

a = Cc1n[nH]c2nc(-c3ccc(O)c(F)c3)cc(C(=O)N3CCC(N)CC3)c12
b = Cc1n[nH]c2nc(-c3ccc(O)c(F)c3)cc(C(=O)N[C@H]3C[C@@H]3N)c12 (racemic)
Just curious, which one has the larger inhibition at 1.14 µM reading, a or b ? Output the label that corresponds to your choice.
a

* * *

Experimental System: human full-length recombinant PKC βII (Homo sapiens, UniProt P05771)
Construct: Active human full-length recombinant PKC βII; purchased Invitrogen GmbH, Darmstadt, Germany
Experiment Notes: Determination of PKC βII inhibition (Caliper mobility-shift kinase assay, Fluorescein-RFARKGSLRQKNV peptide substrate)
Format: biochemical
Test Parameters: example compounds at a final concentration of 1.14 μM (±0.15 μM)
Property: inhibition at 1.14 µM (%)

| Compound | Unit Info | inhibition at 1.14 µM |
| --- | --- | --- |
| Cc1n[nH]c2nc(-c3ccc(O)cc3)cc(C(=O)N3CC(C)(C)NCC3(C)C)c12 | % | 99 |
| Cc1n[nH]c2nc(-c3ccc(O)cc3)cc(C(=O)N3CCNCC3c3cccc(F)c3)c12 (stereo not drawn) | % | 93 |
| Cc1n[nH]c2nc(-c3ccc(O)c(F)c3)cc(C(=O)N(C)C3CCN(C)CC3)c12 | % | 41 |

I = Cc1n[nH]c2nc(-c3ccc(O)c(F)c3)cc(C(=O)N3CCNCC3)c12
II = Cc1n[nH]c2nc(-c3ccc(O)cc3)cc(C(=O)NC3CCC(N(C)C)CC3)c12 (stereo not drawn)
Between I and II , whose measured inhibition at 1.14 µM reads higher? Mark your answer with the label of the selected entry.
I

* * *

Experimental System: human full-length recombinant PKC βII (Homo sapiens)
Construct: Active human full-length recombinant PKC βII; purchased Invitrogen GmbH, Darmstadt, Germany
Experiment Notes: Determination of PKC βII inhibition (Caliper mobility-shift kinase assay, Fluorescein-RFARKGSLRQKNV peptide substrate)
Assay type: biochemical
Test Parameters: example compounds at a final concentration of 1.14 μM (±0.15 μM)
Property: inhibition at 1.14 µM (%)

Solved cases (3 shown):
| Compound | inhibition at 1.14 µM, % |
| --- | --- |
| Cc1n[nH]c2nc(-c3ccc(O)cc3)cc(C(=O)N3CCNC[C@@H]3C(C)C)c12 | 101 |
| Cc1n[nH]c2nc(-c3ccc(O)cc3)cc(C(=O)N[C@@H]3[C@H]4CC[C@H](C4)[C@H]3CN)c12 | 91 |
| CCc1n[nH]c2nc(-c3ccc(O)cc3)cc(C(=O)NC3CCCN(C)C3)c12 (centres unmarked) | 53 |

a = Cc1n[nH]c2nc(-c3ccc(O)cc3)cc(C(=O)N3CCN[C@H](C)C3)c12
b = Cc1n[nH]c2nc(-c3ccc(O)cc3F)cc(C(=O)N3C[C@@H](C)NC[C@H]3C)c12
Smaller inhibition at 1.14 µM value, a vs b ? Mark your answer with the label of the selected entry.
b

a = Cc1n[nH]c2nc(-c3ccc(O)cc3)cc(C(=O)N3CC4CCC3CN4)c12 (centres unmarked)
b = CCc1n[nH]c2nc(-c3ccc(O)cc3)cc(C(=O)N3CC[C@H](N(C)C)C3)c12
c = O=C(c1cc(-c2ccc(O)cc2)nc2[nH]nc(C(F)(F)F)c12)N1CCC2(CCNC2)CC1
Rank the 3 compounds: largest inhibition at 1.14 µM first, smallest last. Response field: labels, in requested order.
a, b, c
